Target: RXRγ (UniProt P28705)
Sequence (P28705 1-463): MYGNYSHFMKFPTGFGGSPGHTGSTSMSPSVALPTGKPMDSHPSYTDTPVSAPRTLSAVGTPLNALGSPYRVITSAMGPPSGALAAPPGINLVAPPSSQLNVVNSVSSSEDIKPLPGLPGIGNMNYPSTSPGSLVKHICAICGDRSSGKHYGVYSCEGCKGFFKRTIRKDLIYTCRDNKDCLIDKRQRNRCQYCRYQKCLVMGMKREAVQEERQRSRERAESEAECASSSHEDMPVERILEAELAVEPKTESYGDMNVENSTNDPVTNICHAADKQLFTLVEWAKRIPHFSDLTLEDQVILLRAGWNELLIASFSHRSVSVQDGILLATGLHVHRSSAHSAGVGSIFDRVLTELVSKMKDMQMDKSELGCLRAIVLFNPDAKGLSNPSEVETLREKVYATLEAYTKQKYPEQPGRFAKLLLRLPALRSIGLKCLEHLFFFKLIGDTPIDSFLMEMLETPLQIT
Test: holoreceptor transactivation assay, RXRγ
Assay type: cell-based
Settings: NA = Not Active, read-out: RXR Trans. EC50 (nM) γ
property label: EC50

[[record]]
compound = "CCN(c1ccc(C(=O)O)cc1)c1cc2c(cc1C)C(C)=CCC2(C)C [Compound 45]"
assay_result = "> 1000 nM"

[[record]]
compound = "CCCCCCOc1cc2c(cc1N(CCC)c1ccc(C(=O)O)cc1)C(C)=CCC2(C)C [Compound 145]"
assay_result = "> 1000 nM"

[[record]]
compound = "CC1=CCC(C)(C)c2cc(N(C)c3ccc(C(=O)O)cc3)c(C)cc21 [Compound 44]"
assay_result = "> 1000 nM"

